Target: FRMPD3, Q5JV73
Sequence (Q5JV73 12-100): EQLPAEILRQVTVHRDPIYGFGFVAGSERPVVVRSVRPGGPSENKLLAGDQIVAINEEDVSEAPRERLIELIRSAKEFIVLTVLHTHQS
Test: holdup assay
Parameters: key: below the threshold = too weak to quantify, mostly under pKd 3.1 to 4
Details: plain residues with an end cap or a label only (N-terminal biotin on a linker: ttds)
measure: pKd

# example entries with known answers
binder	measure	result
FHPLGADSQV [SLC2A1, P11166]	pKd	below the threshold
SKPTRRETEV [HPV35-E6, P27228]	pKd	below the threshold
KKYVDAETSL [SLC4A7, Q9Y6M7]	pKd	3.58
SGSRPSATVV [HPV73-E6, Q82005]	pKd	below the threshold
PRVKPQRSKV [PPP1R13L, Q8WUF5]	pKd	below the threshold

Fill in: pKd of DKDPHSETAL [TMIGD1, Q6UXZ0] is ___
3.53

Could you share which pKd value was measured for EVVHTPETSV [SLC16A3, O15427] ?
below the threshold

// query pKd value for entry RLQRRRETQV [HPV18-E6, P06463]
below the threshold

Which pKd is listed for RLPKIKETTV [FRMPD4, Q14CM0] ?
below the threshold

Which pKd value is on record for NDPAWDETNL [ARHGEF7, Q14155] ?
3.65

Which pKd value is on record for EMDRRPATVV [PLCB4, Q15147] ?
3.64

Consider the binder VDFPPKESSL [ACVR2A, P27037] and give its measured pKd.
below the threshold

Can you look up the measured pKd of QRQARSETLV [HPV59-E6, Q81964] for me?
below the threshold

FYI, the data here is from paper PMC9482650.
